Taken from patent US20030186281A1.

# System: tet operator sequence
# Protocol details: β-galactosidase activity of a tetracycline-regulated promoter in transformed E. coli with revTetR, in the presence and absence of anhydrotetracycline (atc)
# Type: cell-based, Escherichia coli
# Run conditions: RevTetR isolate cultured in the presence of anhydrotetracycline (ATC)
Reported metric: β-Galactosidase Activity, Cultured With ATC

| Molecule | Recorded result |
| --- | --- |
| TetRrevAF1/7: revTetR(BD) G96R L101I (protein, Modified tetracycline repressor, revTetR(BD) G96R L101I) MSRLDKSKVINSALELLNEVGIEGLTTRKLAQKLGVEQPTLYWHVKNKRALLDALAVEILARHHDYSLPAAGESWQSFLRNNAMSFRRALLRYRDRAKVHIGTRPDEKQYDTVETQLRFMTENGFSLRDGLYAISAVSHFTLGAVLEQQEHTAALTDRPAAPDENLPPLLREALQIMDSDDGEQAFLHGLESLIRGFEVQLTALLQIV | 2.2753 |
| TetRrev28/27: revTetR(BD) L17G I22M (protein, Modified tetracycline repressor, revTetR(BD) L17G I22M) MSRLDKSKVINSALELGNEVGMEGLTTRKLAQKLGVEQPTLYWHVKNKRALLDALAVEILARHHDYSLPAAGESWQSFLRNNAMSFRRALLRYRDGAKVHLGTRPDEKQYDTVETQLRFMTENGFSLRDGLYAISAVSHFTLGAVLEQQEHTAALTDRPAAPDENLPPLLREALQIMDSDDGEQAFLHGLESLIRGFEVQLTALLQIV | 1.6907 |
| TetRrev3/38: revTetR(BD) L17H I22F E23G (protein, Modified tetracycline repressor, revTetR(BD) L17H I22F E23G) MSRLDKSKVINSALELHNEVGFGGLTTRKLAQKLGVEQPTLYWHVKNKRALLDALAVEILARHHDYSLPAAGESWQSFLRNNAMSFRRALLRYRDGAKVHLGTRPDEKQYDTVETQLRFMTENGFSLRDGLYAISAVSHFTLGAVLEQQEHTAALTDRPAAPDENLPPLLREALQIMDSDDGEQAFLHGLESLIRGFEVQLTALLQIV | 1.8287 |
| TetRrev25/43: revTetR(BD) L17F E19- G24G (protein, Modified tetracycline repressor, revTetR(BD) L17F E19- G24G) MSRLDKSKVINSALELFNVGIEGLTTRKLAQKLGVEQPTLYWHVKNKRALLDALAVEILARHHDYSLPAAGESWQSFLRNNAMSFRRALLRYRDGAKVHLGTRPDEKQYDTVETQLRFMTENGFSLRDGLYAISAVSHFTLGAVLEQQEHTAALTDRPAAPDENLPPLLREALQIMDSDDGEQAFLHGLESLIRGFEVQLTALLQIV | 1.7535 |
| TetRrevAF3/6: revTetR(BD) E23K D95H L101H (protein, Modified tetracycline repressor, revTetR(BD) E23K D95H L101H) MSRLDKSKVINSALELLNEVGIKGLTTRKLAQKLGVEQPTLYWHVKNKRALLDALAVEILARHHDYSLPAAGESWQSFLRNNAMSFRRALLRYRHGAKVHHGTRPDEKQYDTVETQLRFMTENGFSLRDGLYAISAVSHFTLGAVLEQQEHTAALTDRPAAPDENLPPLLREALQIMDSDDGEQAFLHGLESLIRGFEVQLTALLQIV | 1.0546 |
| TetRrevAtc4-22: revTetR(BD) R49H A56P V57L L60M (protein, Modified tetracycline repressor, revTetR(BD) R49H A56P V57L L60M) MSRLDKSKVINSALELLNEVGIEGLTTRKLAQKLGVEQPTLYWHVKNKHALLDALPLEIMARHHDYSLPAAGESWQSFLRNNAMSFRRALLRYRDGAKVHLGTRPDEKQYDTVETQLRFMTENGFSLRDGLYAISAVSHFTLGAVLEQQEHTAALTDRPAAPDENLPPLLREALQIMDSDDGEQAFLHGLESLIRGFEVQLTALLQIV | 3.7584 |
| TetRrevAF5/5: revTetR(BD) L14V L17F V20A I22M L25F D95H (protein, Modified tetracycline repressor, revTetR(BD) L14V L17F V20A I22M L25F D95H) MSRLDKSKVINSAVELFNEAGMEGFTTRKLAQKLGVEQPTLYWHVKNKRALLDALAVEILARHHDYSLPAAGESWQSFLRNNAMSFRRALLRYRHGAKVHLGTRPDEKQYDTVETQLRFMTENGFSLRDGLYAISAVSHFTLGAVLEQQEHTAALTDRPAAPDENLPPLLREALQIMDSDDGEQAFLHGLESLIRGFEVQLTALLQIV | 1.6948 |
| TetRrev29/25: revTetR(BD) G21- I22- E23- G24S (protein, Modified tetracycline repressor, revTetR(BD) G21- I22- E23- G24S) MSRLDKSKVINSALELLNEVSLTTRKLAQKLGVEQPTLYWHVKNKRALLDALAVEILARHHDYSLPAAGESWQSFLRNNAMSFRRALLRYRDGAKVHLGTRPDEKQYDTVETQLRFMTENGFSLRDGLYAISAVSHFTLGAVLEQQEHTAALTDRPAAPDENLPPLLREALQIMDSDDGEQAFLHGLESLIRGFEVQLTALLQIV | 3.112 |
| TetRrevAtc4-28: revTetR(BD) V57V E58K L60V R62G (protein, Modified tetracycline repressor, revTetR(BD) V57V E58K L60V R62G) MSRLDKSKVINSALELLNEVGIEGLTTRKLAQKLGVEQPTLYWHVKNKRALLDALAVKIVAGHHDYSLPAAGESWQSFLRNNAMSFRRALLRYRDGAKVHLGTRPDEKQYDTVETQLRFMTENGFSLRDGLYAISAVSHFTLGAVLEQQEHTAALTDRPAAPDENLPPLLREALQIMDSDDGEQAFLHGLESLIRGFEVQLTALLQIV | 4.217 |
